molecular target: C-C chemokine receptor type 5 (Homo sapiens); assay: Inhibitory concentration of compound to displace GP120 from […] chemokine receptor 5
Sequence (P51681 whole entry): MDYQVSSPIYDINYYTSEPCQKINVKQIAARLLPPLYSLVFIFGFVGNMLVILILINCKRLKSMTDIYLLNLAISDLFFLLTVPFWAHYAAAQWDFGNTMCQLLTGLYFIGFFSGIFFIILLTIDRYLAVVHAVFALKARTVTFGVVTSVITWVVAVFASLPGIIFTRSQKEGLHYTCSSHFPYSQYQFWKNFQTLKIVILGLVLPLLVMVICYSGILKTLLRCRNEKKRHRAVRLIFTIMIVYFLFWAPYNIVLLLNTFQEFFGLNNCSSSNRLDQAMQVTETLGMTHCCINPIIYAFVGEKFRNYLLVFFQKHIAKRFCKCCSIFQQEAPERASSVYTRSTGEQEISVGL
pIC50: −log10 of the molar value.

# compound string, pIC50
rows = [
    ("CCn1nc(Cc2ccccc2)cc1C1CCN(C[C@H]2CN([C@@H](C(=O)O)C3CCCCC3)C[C@@H]2c2ccccc2)CC1", 8.70),
]

* * *

assay: Oral bioavailability in rat; settings: in vivo

# compound string, bioavailability [%]
rows = [
    ("CCn1nc(Cc2ccccc2)cc1C1CCN(C[C@H]2CN([C@@H](C(=O)O)C3CCC3)C[C@@H]2c2ccccc2)CC1", 11),
    ("CCn1nc(Cc2ccccc2)cc1C1CCN(C[C@H]2CN([C@H](CC(C)C)C(=O)O)C[C@@H]2c2ccccc2)CC1", 17),
    ("CCn1nc(Cc2ccccc2)cc1C1CCN(C[C@H]2CN([C@H](CC3CC3)C(=O)O)C[C@@H]2c2cccc(F)c2)CC1", 8.1),
    ("CCn1nc(Cc2ccccc2)cc1C1CCN(C[C@H]2CN([C@@H](C(=O)O)C(C)C)C[C@@H]2c2ccccc2)CC1", 17),
]
